Measured MIC values are reported for all entries that follow.
Test system: Staphylococcus aureus
Assay: Antibacterial activity against carbapenem and methicillin-resistant Staphylococcus aureus M126HR by agar dilution method
Format: functional
Reply with just the number (in µg/mL).

Answered examples (3):
>  <Compound>
C[C@@H](O)[C@H]1C(=O)N2C(C(=O)[O-])=C(c3cn4c(C5CC5)nc(C(=O)c5ccc[n+](CC(N)=O)c5)c4s3)[C@H](C)[C@H]12

>  <MIC / µg/mL>
2

$$$$
>  <Compound>
C[C@@H](O)[C@H]1C(=O)N2C(C(=O)O)=C(c3cn4cnc(C(=O)C5CCNCC5)c4s3)[C@H](C)[C@H]12

>  <MIC / µg/mL>
4

$$$$
>  <Compound>
C[C@@H](O)[C@H]1C(=O)N2C(C(=O)[O-])=C(c3cn4cnc(C(=O)c5ccc[n+](CCS(C)(=O)=O)c5)c4s3)[C@H](C)[C@H]12

>  <MIC / µg/mL>
4

$$$$

# get_value(readout='MIC', item= COCc1nc(C(=O)c2ccc[n+](CC(N)=O)c2)c2sc(C3=C(C(=O)[O-])N4C(=O)[C@H]([C@@H](C)O)[C@H]4[C@H]3C)cn12 )
4

# get_value(readout='MIC', item= C[C@@H](O)[C@H]1C(=O)N2C(C(=O)O)=C(c3cn4cnc(C(=O)[C@@H]5CCCN5)c4s3)[C@H](C)[C@H]12 )
4

# get_value(readout='MIC', item= C[C@@H](O)[C@H]1C(=O)N2C(C(=O)O)=C(c3cn4cnc(C(=O)C5CCCCN5)c4s3)[C@H](C)[C@H]12 (stereo partly specified) )
4

# get_value(readout='MIC', item= C[C@@H](O)[C@H]1C(=O)N2C(C(=O)O)=C(c3cn4cnc(C(=O)c5ccncc5)c4s3)[C@H](C)[C@H]12 )
4
